Each entry below lists one item and its recorded Binding to Human CTLA4 value.
target: T1, hCTLA4-His-BAP (human CTLA4 extracellular region with C-terminal His-tag and BAP-tag) (human, biotin on the BAP-tag); experiment: SPR 37C, hCTLA4 1000 nM, ATP 1 µM; ATP 1 µM; binding amount at 1000 nM hCTLA4
T1 construct: also called hCTLA4-His-Biotin
T1 sequence (chain, as listed by the source limits assumed): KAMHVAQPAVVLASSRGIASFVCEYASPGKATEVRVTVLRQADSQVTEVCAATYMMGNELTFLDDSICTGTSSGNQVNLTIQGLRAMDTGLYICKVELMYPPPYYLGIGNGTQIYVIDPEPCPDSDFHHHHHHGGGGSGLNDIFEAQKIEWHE

# BINDER, REPORTED
records = [
    ("04H1207-G1m/04L1086-lam1 (antibody, human IgG1, lambda, V domains shown) VH: EVQLVESGGGLVKPGGSLRLSCAASGFTFSSKTMNWVRQAPGKGLEWVSSISTRSGYIYYAESVKGRFTISRDNAKNSLYLQMNSLRAEDTAVYYCARYGKREDMLWVFDYWGQGTLVTVSS VL: QSALTQPPSASGSPGQTVTISCDGPSTGVGDYNYVHWYQQHPGKAPKLMIYFTSKKPSGVPDRFSGSKSGNTASLTVSGLQAEDEADYFCQTYAAPLGPMFGGGTKLTVLG", "0.047 per unit amount of antibody"),
    ("04H1077-G1m/04L1067-lam1 (antibody, human IgG1, lambda, V domains shown) VH: EVQLVESGGDLVKPGGGLRLSCAASGFTFSSRTMNWVRQAPGKGLEWVSSISTRSGYIYYAESVKGRFTISRDNAKNSLYLQMNSLRAEDTAVYYCARYGKREDMLWVFDYWGQGTLVTVSS VL: QSALTQPPSASGSPGQTVTISCDGPSTGVGDYNYVHWYQQHPGKAPKLMIYFTSKKPSGVPDRFSGSKSGNTASLTVSGLQAEDEADYFCSTYAAPLGPMFGGGTKLTVLG", "0.041 per unit amount of antibody"),
]

We now examine a further binder.
Exercise: Requested field: Binding to Human CTLA4. Item: 04H1077-G1m/04L1086-lam1 (antibody, human IgG1, lambda, V domains shown) VH: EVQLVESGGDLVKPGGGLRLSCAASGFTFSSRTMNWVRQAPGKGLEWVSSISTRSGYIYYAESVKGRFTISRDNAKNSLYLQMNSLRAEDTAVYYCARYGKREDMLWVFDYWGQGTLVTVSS VL: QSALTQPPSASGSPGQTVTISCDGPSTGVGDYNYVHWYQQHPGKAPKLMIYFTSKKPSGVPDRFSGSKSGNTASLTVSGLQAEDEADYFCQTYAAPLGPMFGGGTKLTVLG
Key: 0.031 per unit amount of antibody
